This listing pairs compounds with measured half-life at 25 μM.
System: glutathione (GSH)
ASSAY_INFO: Reactivity Profiling with Glutathione (GSH), half-life by HPLC
CONDITION_NOTES: 5 mM glutathione (GSH) in IMDM with 10% FBS

SUBSTANCE_SMILES | TARGET_UNDER_TEST | MEASURED_RESULT
CCOc1cc(C(=O)O)cc(F)c1N(Cc1cc(C2CC2)cc(C2CC2)c1)C(=O)CN(Cc1ccccc1C#N)S(=O)(=O)c1c(F)c(F)c(F)c(F)c1F | glutathione (GSH) | 2.37 to 4.12 h
COc1cc(C(=O)O)ccc1N(Cc1cc(C2CC2)cc(C(C)(C)C)c1)C(=O)CN(Cc1ccccc1F)S(=O)(=O)c1c(F)c(F)c(F)c(F)c1F | glutathione (GSH) | 2.37 to 4.12 h
CC(C)(C)c1cc(CN(C(=O)CN(Cc2cnccc2C(F)(F)F)S(=O)(=O)c2c(F)c(F)c(F)c(F)c2F)c2ccc(C(=O)O)cc2C2CC2)cc(C2CC2)c1 | glutathione (GSH) | 2.37 to 4.12 h
CC(C)(C)c1cc(CN(C(=O)CN(Cc2ccc(Cl)cc2)S(=O)(=O)c2c(F)c(F)c(F)c(F)c2F)c2ccc(S(N)(=O)=O)cc2)cc(C2CC2)c1 | glutathione (GSH) | 9.23 to 1670 h

Now examine the next entry.
stdin: half-life at 25 μM lookup needed for CC(C)(C)c1cc(CN(C(=O)CN(Cc2cnccc2C(F)(F)F)S(=O)(=O)c2c(F)c(F)c(F)c(F)c2F)c2ccc(C(=O)O)cc2OC2CC2)cc(C2CC2)c1 , thanks.
stdout: 4.12 to 9.23 h
